pIC50: −log10 of the molar value.
# pIC50 measurements, system: IGF1R tyrosine kinase (Homo sapiens, UniProt P08069)
# Sequence (P08069 999-1274 limits assumed): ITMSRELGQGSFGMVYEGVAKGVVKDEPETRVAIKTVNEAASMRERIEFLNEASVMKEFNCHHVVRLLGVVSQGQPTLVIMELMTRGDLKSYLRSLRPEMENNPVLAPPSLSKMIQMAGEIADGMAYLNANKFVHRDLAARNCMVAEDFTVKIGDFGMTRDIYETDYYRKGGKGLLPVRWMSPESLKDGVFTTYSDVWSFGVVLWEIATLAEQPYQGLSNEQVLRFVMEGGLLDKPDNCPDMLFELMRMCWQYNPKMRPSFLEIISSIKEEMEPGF

Look over these answered cases.
compound	pIC50
CN1CCC(N2C(=O)c3cc4nc(-c5c(NCC(O)COc6ccc(C(C)(C)C)cc6)cc[nH]c5=O)[nH]c4cc3C2=O)CC1 (centres unmarked)	5.30 to 6.30
CN1CCC(N2C(=O)c3cc4nc(-c5c(NC[C@@H](O)COc6cccc7ccccc67)cc[nH]c5=O)[nH]c4cc3C2=O)CC1	> 6.30
Cc1ccc(OC[C@H](O)CNc2ccnc(O)c2-c2nc3cc4c(cc3[nH]2)C(=O)N(C2CCN(C)CC2)C4=O)c2c1CCC2	> 6.30
CN1CCC(N2C(=O)c3cc4nc(-c5c(NC[C@H](O)COc6ccc(F)cc6)cc[nH]c5=O)[nH]c4cc3C2=O)CC1	5.30 to 6.30
Cc1ccc(OCC(O)CNc2cc[nH]c(=O)c2-c2nc3cc4c(cc3[nH]2)C(=O)N(C2CCN(C)CC2)C4=O)c(C)c1 (centres unmarked)	> 6.30
Cc1ccc(OC[C@H](O)CNc2ccnc(O)c2-c2nc3cc4c(cc3[nH]2)C(=O)N(C2CCN(C)CC2)C4=O)c(C)n1	> 6.30
CN1CCC(N2C(=O)c3cc4nc(-c5c(NC[C@@H](O)COc6cccc(C(F)(F)F)c6)ccnc5O)[nH]c4cc3C2=O)CC1	5.30 to 6.30
Cc1ccc(OC[C@H](O)CNc2ccnc(O)c2-c2nc3cc4c(cc3[nH]2)C(=O)N([C@@H]2CCCN(C)C2)C4=O)c(C)c1	> 6.30

Please look at the items below and tell me pIC50 for each one, in order.
1. Cc1ccc(OC[C@H](O)CNc2cc[nH]c(=O)c2-c2nc3cc4c(cc3[nH]2)CN(C2CCN(C)CC2)C4=O)c(C)c1
2. Cc1ncccc1OC[C@H](O)CNc1ccnc(O)c1-c1nc2cc3c(cc2[nH]1)C(=O)N(C1CCN(C)CC1)C3=O

Response:
["> 6.30", "5.30 to 6.30"]

Request: Which pIC50 is listed for "Cc1ccc(OC[C@@H](O)CNc2cc[nH]c(=O)c2-c2nc3cc4c(cc3[nH]2)C(=O)N(C2CCN(C)CC2)C4=O)c(C)c1" ?
Response: > 6.30

---

# IC50 measurements, system: InsR (Homo sapiens, UniProt P06213)
# Sequence (P06213 1023-1298 limits assumed, species assumed): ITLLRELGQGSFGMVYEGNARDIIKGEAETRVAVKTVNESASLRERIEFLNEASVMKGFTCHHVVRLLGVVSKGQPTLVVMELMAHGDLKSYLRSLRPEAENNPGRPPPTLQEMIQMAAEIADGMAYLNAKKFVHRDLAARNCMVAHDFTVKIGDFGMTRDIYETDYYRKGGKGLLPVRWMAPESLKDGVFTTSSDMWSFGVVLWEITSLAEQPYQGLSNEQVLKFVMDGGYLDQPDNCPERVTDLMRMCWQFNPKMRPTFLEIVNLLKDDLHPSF

molecule	IC50
Cc1c(Cl)cccc1OC[C@H](O)CNc1cc[nH]c(=O)c1-c1nc2cc3c(cc2[nH]1)C(=O)N(CCCN1CCCC1)C3=O [compound 115]	< 0.5 µM
O=C1c2cc3nc(-c4c(NC[C@@H](O)c5cccc(Cl)c5)cc[nH]c4=O)[nH]c3cc2C(=O)N1CC1CCN(CCO)CC1 [compound 13]	< 0.5 µM
Cc1ccc(OCC(O)CNc2cc[nH]c(=O)c2-c2nc3cc4c(cc3[nH]2)C(=O)N(C2CCN(C)CC2)C4=O)c(C)c1 (stereo not drawn) [compound 15]	< 0.5 µM
O=C1c2cc3nc(-c4c(NC[C@@H](O)c5cccc(Cl)c5)cc[nH]c4=O)[nH]c3cc2C(=O)N1CCc1c[nH]cn1 [compound 9]	0.5 to 5 µM

Please look at the items below and tell me IC50 for each one, in order.
1. Cc1ccc(OC[C@H](O)CNc2cc[nH]c(=O)c2-c2nc3cc4c(cc3[nH]2)C(=O)N(C2CCN(CCN(C)C)CC2)C4=O)c(C)c1 [compound 126]
2. Cc1ccc(OC[C@H](O)CNc2ccnc(O)c2-c2nc3cc4c(cc3[nH]2)C(=O)N([C@H]2CCCN(C)C2)C4=O)c(C)c1 [compound 103]

Response:
0.5 to 5 µM
5 to 15 µM
